Target: UniProtKB P25099
Sequence (P25099 whole entry): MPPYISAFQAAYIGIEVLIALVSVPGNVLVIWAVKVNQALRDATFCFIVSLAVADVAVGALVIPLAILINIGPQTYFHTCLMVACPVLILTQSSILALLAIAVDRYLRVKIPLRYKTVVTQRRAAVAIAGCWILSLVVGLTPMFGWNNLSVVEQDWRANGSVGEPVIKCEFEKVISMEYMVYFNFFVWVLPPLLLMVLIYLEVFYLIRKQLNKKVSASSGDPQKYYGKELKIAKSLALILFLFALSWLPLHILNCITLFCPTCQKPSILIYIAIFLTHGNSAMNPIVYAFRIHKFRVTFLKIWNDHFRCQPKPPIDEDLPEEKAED
Assay: Antagonist activity at rat adenosine A1 receptor
Test readout: pKi
Numbers only, as −log10 of the molar value.

Item under review: O=C1/C(=C/c2ccc(O)c(O)c2)Oc2c1ccc(O)c2O . Reported pKi?
5.46

----------
target: UniProt:P30543; assay: Antagonist activity at rat adenosine A2A receptor
Sequence (P30543 whole entry): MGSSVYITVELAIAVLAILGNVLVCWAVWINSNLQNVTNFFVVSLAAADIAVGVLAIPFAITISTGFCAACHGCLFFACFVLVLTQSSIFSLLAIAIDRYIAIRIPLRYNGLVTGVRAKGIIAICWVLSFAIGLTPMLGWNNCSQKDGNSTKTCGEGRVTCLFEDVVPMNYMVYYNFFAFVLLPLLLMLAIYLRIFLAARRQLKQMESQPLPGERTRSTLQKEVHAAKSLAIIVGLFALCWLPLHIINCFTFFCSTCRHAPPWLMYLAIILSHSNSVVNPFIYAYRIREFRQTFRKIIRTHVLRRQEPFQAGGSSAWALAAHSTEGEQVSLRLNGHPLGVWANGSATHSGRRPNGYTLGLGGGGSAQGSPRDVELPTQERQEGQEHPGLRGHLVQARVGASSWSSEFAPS
Test readout: Ki (µM)
Numbers only, in µM.

Item under review: O=C1/C(=C/c2ccc(O)c(O)c2)Oc2c1ccc(O)c2O . Reported Ki?
9.35

----------
Answer each item with its documented inhibition.
target: Adenosine receptor A1 (Rattus norvegicus); assay: Displacement of [3H]DPCPX from adenosine A1 receptor in rat brain membranes at 100 uM by radioligand competition assay relative to control; type: cell membranes
One number for each entry, in %.

Here's what some known entries look like.
COc1cccc2c1C/C(=C\c1ccc(N(C)C)cc1)C2=O; 52
COc1cc(OC)c(OC)cc1/C=C1\Cc2c(OC)cccc2C1=O; 46
COc1ccc2c(c1)C/C(=C\c1ccc(N(C)C)cc1)C2=O; 64

Would you be so kind as to report inhibition for each listed record?
1. COc1cccc2c1CCC2=O
2. COc1ccc2c(c1)C/C(=C\c1ccccc1)C2=O

1: 78; 2: 42

Would you be so kind as to report inhibition for each listed record?
1. CN(C)c1ccc(/C=C2\Cc3ccccc3C2=O)cc1
2. COc1cccc2c1C/C(=C\c1ccc(O)cc1)C2=O
3. O=C1/C(=C/c2ccc(O)c(O)c2)Cc2cc3c(cc21)OCO3

51
31
70

----------
Answer each item with its documented Ki.
target: UniProt:P25099; experiment: Displacement of [3H]DPCPX from adenosine A1 receptor in rat brain membranes by radioligand competition assay; type: cell membranes

Here's what some known entries look like.
COc1cccc2c1CCC2=O; > 100 µM
O=C1/C(=C/c2ccc(O)c(O)c2)Cc2cc3c(cc21)OCO3; > 100 µM
COc1cccc2c1C/C(=C\c1ccc(O)cc1)C2=O; > 100 µM
CN(C)c1ccc(/C=C2\Cc3ccccc3C2=O)cc1; > 100 µM
COc1ccc2c(c1)C/C(=C\c1ccc(N(C)C)cc1)C2=O; > 100 µM
COc1cc(OC)c(OC)cc1/C=C1\Cc2c(OC)cccc2C1=O; > 100 µM
COc1ccc2c(c1)C/C(=C\c1ccccc1)C2=O; > 100 µM

We now examine a further compound.
Item under review: COc1cccc2c1C/C(=C\c1ccc(N(C)C)cc1)C2=O . Reported Ki?
> 100 µM
